This collection of values is drawn from patent US7205295B2.

// melting point lookup, one value per entry

substance_smiles	reported_result
CCN(CC)Cc1ccc(CN2C(=O)COc3c(C)cc(C=C4SC(=S)NC4=O)cc32)cc1	250 to 252 °C
O=C1NC(=S)SC1=Cc1ccc2c(c1)N(CCc1cccc(Cl)c1)C(=O)CO2	280 to 282 °C
O=C1NC(=S)SC1=Cc1ccc2c(c1)N(CCc1ccccc1C(F)(F)F)C(=O)CO2	283 to 286 °C
Cc1cccc(CN2C(=O)COc3ccc(C=C4SC(=S)NC4=O)cc32)c1C	> 300 °C
CC(C)(C)c1cc(CON2C(=O)COc3ccc(C=C4SC(=S)NC4=O)cc32)cc(C(C)(C)C)n1	> 300 °C
O=C1NC(=S)SC1=Cc1ccc2c(c1)N(Cc1cccc(-c3ccncc3)c1)C(=O)CO2	297 to 299 °C

// returns reported melting point for input "O=C1NC(=S)SC1=Cc1ccc2c(c1)N(CCc1ccc(Cl)cc1)C(=O)CO2"
278 to 280 °C

Using the record for "COc1cccc(CCN2C(=O)COc3ccc(C=C4SC(=S)NC4=O)cc32)c1" , report its melting point.
233 to 236 °C

I have this compound here, "O=C1NC(=S)SC1=Cc1ccc2c(c1)N(CCc1ccc(Cl)cc1Cl)C(=O)CO2" , and I need its recorded melting point.
267 to 269 °C

May I ask what melting point has been recorded for "O=C1NC(=S)SC1=Cc1ccc2c(c1)N(OCc1ccccc1)C(=O)CO2" ?
> 300 °C

Would you kindly share the measured melting point for "Cc1ccc(CN2C(=O)COc3ccc(C=C4SC(=S)NC4=O)cc32)cc1C" ?
> 300 °C

Find the recorded melting point belonging to "Cc1cc(C=C2SC(=S)NC2=O)cc2c1OCC(=O)N2Cc1ccc(CN2CCCCC2)cc1" and report it.
277 to 278 °C

Look up melting point: "O=C1NC(=S)SC1=Cc1ccc2c(c1)N(CCc1ccc(C(F)(F)F)cc1)C(=O)CO2"
253 to 255 °C

What measured melting point goes with "CN(C)c1ccc(CCN2C(=O)COc3ccc(C=C4SC(=S)NC4=O)cc32)cc1" ?
266 to 268 °C

Entry "CC(C)Oc1cc(CN2C(=O)COc3ccc(C=C4SC(=S)NC4=O)cc32)cc(OC(C)C)c1" has what melting point?
245 to 247 °C

Need melting point of "Cc1ccc(CCN2C(=O)COc3ccc(C=C4SC(=S)NC4=O)cc32)cc1" , thanks.
267 to 269 °C

I'd like to know its melting point. The compound in question is "O=C1NC(=S)SC1=Cc1ccc2c(c1)N(OCc1ccc(C(F)(F)F)cc1)C(=O)CO2"
> 300 °C
